- target under test: F508del-CFTR (Homo sapiens, UniProt P13569, DEL508-508)
- Sequence (P13569 with tags, fused parts or gaps DEL508-508): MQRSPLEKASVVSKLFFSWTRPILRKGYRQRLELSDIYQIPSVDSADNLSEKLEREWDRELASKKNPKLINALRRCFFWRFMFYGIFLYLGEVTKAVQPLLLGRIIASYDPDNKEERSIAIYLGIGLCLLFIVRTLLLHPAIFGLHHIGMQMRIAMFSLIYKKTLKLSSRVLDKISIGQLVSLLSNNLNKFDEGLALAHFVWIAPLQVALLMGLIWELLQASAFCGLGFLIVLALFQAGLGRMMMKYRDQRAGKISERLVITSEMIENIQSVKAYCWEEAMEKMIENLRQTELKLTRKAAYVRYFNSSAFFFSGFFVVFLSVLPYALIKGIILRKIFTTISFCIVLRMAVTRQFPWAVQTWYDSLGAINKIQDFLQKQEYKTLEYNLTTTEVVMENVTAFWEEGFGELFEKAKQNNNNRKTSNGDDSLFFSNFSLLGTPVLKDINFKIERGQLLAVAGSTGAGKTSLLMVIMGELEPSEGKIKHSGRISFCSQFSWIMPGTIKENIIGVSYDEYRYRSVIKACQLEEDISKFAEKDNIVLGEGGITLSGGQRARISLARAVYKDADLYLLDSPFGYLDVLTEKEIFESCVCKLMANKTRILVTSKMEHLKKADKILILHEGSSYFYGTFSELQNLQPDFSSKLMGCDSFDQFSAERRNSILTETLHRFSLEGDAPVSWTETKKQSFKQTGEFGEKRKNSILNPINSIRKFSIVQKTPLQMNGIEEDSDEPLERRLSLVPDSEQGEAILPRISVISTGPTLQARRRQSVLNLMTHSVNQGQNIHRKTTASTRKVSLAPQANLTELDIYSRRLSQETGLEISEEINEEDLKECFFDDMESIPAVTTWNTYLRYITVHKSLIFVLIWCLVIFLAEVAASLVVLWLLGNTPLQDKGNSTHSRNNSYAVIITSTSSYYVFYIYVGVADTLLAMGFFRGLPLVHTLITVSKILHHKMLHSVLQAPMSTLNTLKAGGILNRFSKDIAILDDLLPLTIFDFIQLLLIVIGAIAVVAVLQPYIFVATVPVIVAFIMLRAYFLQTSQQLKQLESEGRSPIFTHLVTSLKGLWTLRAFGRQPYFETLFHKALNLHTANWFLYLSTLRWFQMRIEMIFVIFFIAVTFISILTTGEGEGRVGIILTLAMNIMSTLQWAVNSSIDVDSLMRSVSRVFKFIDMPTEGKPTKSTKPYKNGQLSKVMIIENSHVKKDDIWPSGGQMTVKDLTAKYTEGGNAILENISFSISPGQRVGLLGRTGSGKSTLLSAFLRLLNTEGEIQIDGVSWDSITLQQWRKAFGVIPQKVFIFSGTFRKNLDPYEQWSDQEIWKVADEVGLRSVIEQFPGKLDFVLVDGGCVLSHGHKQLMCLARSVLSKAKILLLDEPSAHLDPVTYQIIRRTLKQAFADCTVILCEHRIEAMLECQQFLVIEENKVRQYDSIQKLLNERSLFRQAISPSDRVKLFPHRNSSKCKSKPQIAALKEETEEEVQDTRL
- experiment description: Membrane potential optical assay (F508del-CFTR correction)
- test parameters: NIH3T3 mouse fibroblasts stably expressing F508del, 18-24 hours
experimental endpoint: EC50

Quick one: EC50 for C[C@@H]1CN(c2nc(-n3ccc(OCCC4(C(F)(F)F)CC4)n3)ccc2C(=O)NS(=O)(=O)c2ccccc2)C(C)(C)C1 [Compound I] ?
< 3 µM
